molecular target: T1, soluble human CD40 extracellular domain (human, UniProt P25942 21-193); test: SPR, antibody captured from supernatant on protein A chip, soluble hCD40 ECD at 5 and 50 nM (summary table of the 16 chosen antibodies)
T1 construct: Produced in house; also called hCD40; soluble hCD40 extracellular domain
T1 sequence (P25942 21-193 limits assumed): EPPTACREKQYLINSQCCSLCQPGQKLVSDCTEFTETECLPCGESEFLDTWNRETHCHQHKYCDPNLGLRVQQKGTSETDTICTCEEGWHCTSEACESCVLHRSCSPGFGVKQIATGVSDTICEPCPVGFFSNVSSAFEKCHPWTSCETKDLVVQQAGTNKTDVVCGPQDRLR
ATTRIBUTE MEASURED: Kd (nM)
Numeric only. Scale: nM

Sample records with Kd:
1. M63 (HC-R67Q / LC-K45Q,R54Q,R61Q) (antibody, human IgG1, kappa, V domains shown, IgG1-P238K; also called HC15/LC4) VH: QVQLVQSGAEVKKPGSSVKVSCKASGYAFTSYWMHWVRQAPGQGLEWMGQINPTTGRSQYNEKFKTQVTITADKSTSTAYMELSSLRSEDTAVYYCARWGLQPFAYWGQGTLVTVSS VL: DIQMTQSPSFLSASVGDRVTITCKASQDVSTAVAWYQQKPGKAPQLLIYSASYQYTGVPSQFSGSGSGTDFTLTISSLQPEDFATYYCQQHYSTPWTFGGGTKVEIKR = 2.4
2. M54 (HC-K12V,K19S,K23A / LC-K45Q,R54Q,R61Q) (antibody, human IgG1, kappa, V domains shown, IgG1-P238K; also called HC6/LC4) VH: QVQLVQSGAEVVKPGSSVSVSCAASGYAFTSYWMHWVRQAPGQGLEWMGQINPTTGRSQYNEKFKTRVTITADKSTSTAYMELSSLRSEDTAVYYCARWGLQPFAYWGQGTLVTVSS VL: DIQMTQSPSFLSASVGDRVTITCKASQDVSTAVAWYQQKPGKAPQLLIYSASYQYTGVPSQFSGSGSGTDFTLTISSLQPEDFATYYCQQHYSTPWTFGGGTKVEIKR = 3

Turning now to a further binder:
Identify measured Kd associated with M62 (HC-K74T / LC-K45Q,R54Q,R61Q) (antibody, human IgG1, kappa, V domains shown, IgG1-P238K; also called HC14/LC4) VH: QVQLVQSGAEVKKPGSSVKVSCKASGYAFTSYWMHWVRQAPGQGLEWMGQINPTTGRSQYNEKFKTRVTITADTSTSTAYMELSSLRSEDTAVYYCARWGLQPFAYWGQGTLVTVSS VL: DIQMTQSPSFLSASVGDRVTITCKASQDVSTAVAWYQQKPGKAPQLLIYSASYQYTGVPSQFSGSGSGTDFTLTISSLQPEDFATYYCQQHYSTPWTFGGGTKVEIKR 3.1
